- PROCEDURE_DETAILS: Linezolid concentration in blood plasma of beagle dogs after rectal administration of one suppository
- Type: in vivo
- RUN_PARAMETERS: dog, other: rectal, 20 mg, Example 2 solution suppository, 20 mg linezolid, Dog 3 (10.5 kg), 2 h
ASSAY_READOUT: concentration at 2 h (ng/mL)
Numbers only, in ng/mL.

Return concentration at 2 h (reported value) for this compound: CC(=O)NC[C@H]1CN(c2ccc(N3CCOCC3)c(F)c2)C(=O)O1 351

* * *

- PROCEDURE_DETAILS: Linezolid concentration in blood plasma of beagle dogs after rectal administration of one suppository
- Type: in vivo
- RUN_PARAMETERS: dog, other: rectal, 600 mg, Example 5 particulate dispersion suppository, 600 mg linezolid, Dog 1 (15.0 kg), 1 h
ASSAY_READOUT: concentration at 1 h (ng/mL)
Numbers only, in ng/mL.

Return concentration at 1 h (reported value) for this compound: CC(=O)NC[C@H]1CN(c2ccc(N3CCOCC3)c(F)c2)C(=O)O1 5010

* * *

- PROCEDURE_DETAILS: Linezolid concentration in blood plasma of beagle dogs after rectal administration of one suppository
- Type: in vivo
- RUN_PARAMETERS: dog, other: rectal, 20 mg, Example 2 solution suppository, 20 mg linezolid, Dog 3 (10.5 kg), 1 h
- Experimental: One 20 mg linezolid suppository prepared as above was rectally administered to each of four beagle dogs, and the concentration of linezolid in blood plasma of the dogs was determined at different times after administration, as presented in Table 2. One 600 mg linezolid suppository prepared as above was rectally administered to each of four beagle dogs and the concentration of linezolid in blood plasma of the dogs was determined at different times after administration, as presented in Table 3.
ASSAY_READOUT: concentration at 1 h (ng/mL)
One number for each entry, in ng/mL.

Return concentration at 1 h (reported value) for this molecule: CC(=O)NC[C@H]1CN(c2ccc(N3CCOCC3)c(F)c2)C(=O)O1 388

* * *

- PROCEDURE_DETAILS: Linezolid concentration in blood plasma of beagle dogs after rectal administration of one suppository
- Type: in vivo
- RUN_PARAMETERS: dog, other: rectal, 20 mg, Example 2 solution suppository, 20 mg linezolid, Dog 1 (15.2 kg), 0.25 h
ASSAY_READOUT: concentration at 0.25 h (ng/mL)
Give bare numbers, in ng/mL.

Return concentration at 0.25 h (reported value) for this molecule: CC(=O)NC[C@H]1CN(c2ccc(N3CCOCC3)c(F)c2)C(=O)O1 [Linezolid] 47.6

* * *

- PROCEDURE_DETAILS: Linezolid concentration in blood plasma of beagle dogs after rectal administration of one suppository
- Type: in vivo
- RUN_PARAMETERS: dog, other: rectal, 600 mg, Example 5 particulate dispersion suppository, 600 mg linezolid, Dog 3 (10.1 kg), 2.5 h
- Procedure: One 20 mg linezolid suppository prepared as above was rectally administered to each of four beagle dogs, and the concentration of linezolid in blood plasma of the dogs was determined at different times after administration, as presented in Table 2. One 600 mg linezolid suppository prepared as above was rectally administered to each of four beagle dogs and the concentration of linezolid in blood plasma of the dogs was determined at different times after administration, as presented in Table 3.
ASSAY_READOUT: concentration at 2.5 h (ng/mL)
Numbers only, in ng/mL.

Return concentration at 2.5 h (reported value) for this molecule: CC(=O)NC[C@H]1CN(c2ccc(N3CCOCC3)c(F)c2)C(=O)O1 5510

* * *

- PROCEDURE_DETAILS: Linezolid concentration in blood plasma of beagle dogs after rectal administration of one suppository
- Assay type: in vivo
- RUN_PARAMETERS: dog, other: rectal, 600 mg, Example 5 particulate dispersion suppository, 600 mg linezolid, Dog 2 (13.4 g), 1 h
ASSAY_READOUT: concentration at 1 h (ng/mL)
Numbers only, in ng/mL.

Return concentration at 1 h (reported value) for this compound: CC(=O)NC[C@H]1CN(c2ccc(N3CCOCC3)c(F)c2)C(=O)O1 [Linezolid] 2610

* * *

- PROCEDURE_DETAILS: Linezolid concentration in blood plasma of beagle dogs after rectal administration of one suppository
- Type: in vivo
- RUN_PARAMETERS: dog, other: rectal, 600 mg, Example 5 particulate dispersion suppository, 600 mg linezolid, Dog 3 (10.1 kg), 0.5 h
ASSAY_READOUT: concentration at 0.5 h (ng/mL)
Give bare numbers, in ng/mL.

Return concentration at 0.5 h (reported value) for this compound: CC(=O)NC[C@H]1CN(c2ccc(N3CCOCC3)c(F)c2)C(=O)O1 1110

* * *

- PROCEDURE_DETAILS: Linezolid concentration in blood plasma of beagle dogs after rectal administration of one suppository
- Format: in vivo
- RUN_PARAMETERS: dog, other: rectal, 600 mg, Example 5 particulate dispersion suppository, 600 mg linezolid, Dog 1 (15.0 kg), 3 h
ASSAY_READOUT: concentration at 3 h (µg/mL)
Give bare numbers, in µg/mL.

Return concentration at 3 h (reported value) for this compound: CC(=O)NC[C@H]1CN(c2ccc(N3CCOCC3)c(F)c2)C(=O)O1 8.48

* * *

- PROCEDURE_DETAILS: Linezolid concentration in blood plasma of beagle dogs after rectal administration of one suppository
- Format: in vivo
- RUN_PARAMETERS: dog, other: rectal, 600 mg, Example 5 particulate dispersion suppository, 600 mg linezolid, Dog 2 (13.4 g), 2 h
ASSAY_READOUT: concentration at 2 h (ng/mL)
Answers are plain numbers, in ng/mL.

Return concentration at 2 h (reported value) for this compound: CC(=O)NC[C@H]1CN(c2ccc(N3CCOCC3)c(F)c2)C(=O)O1 [Linezolid] 3570

* * *

- PROCEDURE_DETAILS: Linezolid concentration in blood plasma of beagle dogs after rectal administration of one suppository
- Assay type: in vivo
- RUN_PARAMETERS: dog, other: rectal, 20 mg, Example 2 solution suppository, 20 mg linezolid, Dog 1 (15.2 kg), 1 h
ASSAY_READOUT: concentration at 1 h
Note to self: number, then unit, no commentary.

Return concentration at 1 h (reported value) for this molecule: CC(=O)NC[C@H]1CN(c2ccc(N3CCOCC3)c(F)c2)C(=O)O1 209 ng/mL

* * *

- PROCEDURE_DETAILS: Linezolid concentration in blood plasma of beagle dogs after rectal administration of one suppository
- Type: in vivo
- RUN_PARAMETERS: dog, other: rectal, 20 mg, Example 2 solution suppository, 20 mg linezolid, Dog 3 (10.5 kg), 0.25 h
- Experimental: One 20 mg linezolid suppository prepared as above was rectally administered to each of four beagle dogs, and the concentration of linezolid in blood plasma of the dogs was determined at different times after administration, as presented in Table 2. One 600 mg linezolid suppository prepared as above was rectally administered to each of four beagle dogs and the concentration of linezolid in blood plasma of the dogs was determined at different times after administration, as presented in Table 3.
ASSAY_READOUT: concentration at 0.25 h
Note to self: number, then unit, no commentary.

Return concentration at 0.25 h (reported value) for this compound: CC(=O)NC[C@H]1CN(c2ccc(N3CCOCC3)c(F)c2)C(=O)O1 134 ng/mL

* * *

- PROCEDURE_DETAILS: Linezolid concentration in blood plasma of beagle dogs after rectal administration of one suppository
- Format: in vivo
- RUN_PARAMETERS: dog, other: rectal, 20 mg, Example 2 solution suppository, 20 mg linezolid, Dog 1 (15.2 kg), 2 h
ASSAY_READOUT: concentration at 2 h (ng/mL)
Give bare numbers, in ng/mL.

Return concentration at 2 h (reported value) for this molecule: CC(=O)NC[C@H]1CN(c2ccc(N3CCOCC3)c(F)c2)C(=O)O1 354

* * *

- PROCEDURE_DETAILS: Linezolid concentration in blood plasma of beagle dogs after rectal administration of one suppository
- Assay type: in vivo
- RUN_PARAMETERS: dog, other: rectal, 20 mg, Example 2 solution suppository, 20 mg linezolid, Dog 2 (13.7 kg), 0.75 h
ASSAY_READOUT: concentration at 0.75 h (ng/mL)
Numbers only, in ng/mL.

Return concentration at 0.75 h (reported value) for this compound: CC(=O)NC[C@H]1CN(c2ccc(N3CCOCC3)c(F)c2)C(=O)O1 189

Each recorded value in this set is attributed to patent US20030008012A1.
